TARGET: Full length Human HDAC6 (Homo sapiens)
Construct: Full length Human HDAC6; FLAG (C); host or cells: baculovirus expression system
Sequence (Q9UBN7 1-1215): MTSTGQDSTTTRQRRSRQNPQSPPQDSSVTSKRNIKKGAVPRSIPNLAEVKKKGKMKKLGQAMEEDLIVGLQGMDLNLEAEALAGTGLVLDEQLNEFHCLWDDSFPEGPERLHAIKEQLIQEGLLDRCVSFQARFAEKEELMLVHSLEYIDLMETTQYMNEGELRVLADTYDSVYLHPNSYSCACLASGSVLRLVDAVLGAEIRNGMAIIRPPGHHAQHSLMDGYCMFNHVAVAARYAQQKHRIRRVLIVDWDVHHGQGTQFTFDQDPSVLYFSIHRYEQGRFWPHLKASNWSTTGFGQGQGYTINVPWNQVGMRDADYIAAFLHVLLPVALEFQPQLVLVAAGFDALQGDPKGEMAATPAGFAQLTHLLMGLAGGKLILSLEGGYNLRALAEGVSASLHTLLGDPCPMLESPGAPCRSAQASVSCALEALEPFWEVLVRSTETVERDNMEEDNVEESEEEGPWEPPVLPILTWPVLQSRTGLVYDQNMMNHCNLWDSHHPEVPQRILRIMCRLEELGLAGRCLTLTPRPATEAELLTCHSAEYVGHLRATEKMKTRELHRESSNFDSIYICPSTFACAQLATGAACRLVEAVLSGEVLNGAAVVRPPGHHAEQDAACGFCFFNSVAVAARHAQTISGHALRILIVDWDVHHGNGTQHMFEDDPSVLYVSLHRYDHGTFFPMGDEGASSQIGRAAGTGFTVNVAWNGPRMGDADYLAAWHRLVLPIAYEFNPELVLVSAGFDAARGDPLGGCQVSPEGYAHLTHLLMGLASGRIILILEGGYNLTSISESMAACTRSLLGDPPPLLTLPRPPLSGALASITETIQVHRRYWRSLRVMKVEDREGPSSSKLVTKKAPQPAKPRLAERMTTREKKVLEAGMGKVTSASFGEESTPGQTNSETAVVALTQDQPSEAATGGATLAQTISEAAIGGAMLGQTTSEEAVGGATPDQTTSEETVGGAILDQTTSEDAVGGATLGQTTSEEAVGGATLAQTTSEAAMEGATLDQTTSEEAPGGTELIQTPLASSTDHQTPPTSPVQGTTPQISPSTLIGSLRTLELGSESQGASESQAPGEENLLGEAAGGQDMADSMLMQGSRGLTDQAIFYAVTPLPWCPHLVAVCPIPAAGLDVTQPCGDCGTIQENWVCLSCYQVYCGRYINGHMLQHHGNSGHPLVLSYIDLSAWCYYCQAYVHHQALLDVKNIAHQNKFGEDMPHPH
ASSAY EXPLANATION: Caliper endpoint assay for HDAC enzymatic activity (HDAC6)
Format: biochemical
CONDITION NOTES: ratio of HDAC8 IC50/HDAC6 IC50

| MOLECULE | Selectivity (6 v 8) |
| --- | --- |
| CC[C@H]1Cc2c(F)cc(C(=O)NO)cc2CN1CC1CCC2(CCC2)CC1 (single isomer, unassigned) | III (III: >10-100) |
| O=C(NO)c1cc(F)c2c(c1)CCN(C1CC3(C1)CN(C1CC1)C3)C2 | IV (IV: >100-1000) |
| CN1CC[C@]2(CC[C@@H]2N2CCc3cc(C(=O)NO)cc(F)c3C2)C1 (single isomer, unassigned) | IV (IV: >100-1000) |
| CN1[C@@H]2CC[C@H]1CC(CN1CCc3cc(C(=O)NO)cc(F)c3C1)C2 (single isomer, unassigned) [Compound 482] | IV (IV: >100-1000) |
| CC[C@H]1Cc2c(F)cc(C(=O)NO)cc2CN1C[C@]12CN[C@H](CO1)C2 (single isomer, unassigned) | IV (IV: >100-1000) |
| O=C(NO)c1ccc(CN2C3CCC2COC3)c(F)c1 | III (III: >10-100) |
| O=C(NO)c1ccc2c(c1)C[C@@H]1CCCN1C2 | III (III: >10-100) |

Source: patent US12655106B2
